- Tested on: Purkinje-Fasern aus Hundeherzen
- ASSAY_NAME: Electrophysiological studies on Purkinje fibres (Vmax)
- Type: cell-based, Hund
- CONDITION_NOTES: (% of control Vmax at cycle length 2000) / (% of control Vmax at cycle length 500) at C20 Vmax

>  <COMPOUND>
COc1cccc(C(=O)CCc2ccccc2OCC(O)CNC(C)C)c1.Cl (stereo not drawn)

>  <Rate-Faktor von Vmax>
1,15

$$$$
>  <COMPOUND>
CCCNCC(O)COc1ccccc1CCC(=O)c1cccc(OC)c1.Cl (stereo not drawn)

>  <Rate-Faktor von Vmax>
1,16

$$$$
>  <COMPOUND>
Cl.O=C(CCc1ccccc1OCC(O)CNC1CCCCC1)c1ccccc1 (stereo not drawn)

>  <Rate-Faktor von Vmax>
2,50

$$$$
>  <COMPOUND>
Cc1ccc(C(=O)CCc2ccccc2OCC(O)CNC(C)(C)C)cc1.Cl (stereo not drawn)

>  <Rate-Faktor von Vmax>
1,11

$$$$
>  <COMPOUND>
COc1ccc(C(=O)CCc2ccccc2OCC(O)CNC(C)C)cc1OC.Cl (stereo not drawn)

>  <Rate-Faktor von Vmax>
1,13

$$$$
>  <COMPOUND>
CC(C)(C)NCC(O)COc1ccccc1CCC(=O)c1ccccc1.Cl (stereo not drawn)

>  <Rate-Faktor von Vmax>
1,18

$$$$
>  <COMPOUND>
COc1cccc(C(=O)CCc2ccccc2OCC(O)CNC(C)(C)C)c1.Cl (stereo not drawn)

>  <Rate-Faktor von Vmax>
0,99

$$$$
>  <COMPOUND>
CCCNCC(O)COc1ccccc1CCC(=O)c1ccc(OC)c(OC)c1.Cl (stereo not drawn)

>  <Rate-Faktor von Vmax>
5,00

$$$$
>  <COMPOUND>
COc1ccccc1C(=O)CCc1ccccc1OCC(O)CNC(C)(C)C.Cl (stereo not drawn)

>  <Rate-Faktor von Vmax>
1,30

$$$$

====

- ASSAY_NAME: Acute toxicity LD50, mouse i.v.
- CONDITION_NOTES: in vivo, iv, Maus (i.v.), read-out: LD₅₀
OBSERVED_PROPERTY: LD50 (mg/kg)

>  <COMPOUND>
COc1ccccc1C(=O)CCc1ccccc1OCC(O)CNC(C)(C)C.Cl (centres unmarked)

>  <UOM>
mg/kg

>  <EXPERIMENTAL_VALUE>
17

$$$$
>  <COMPOUND>
CCCNCC(O)COc1ccccc1CCC(=O)c1ccc(OC)c(OC)c1.Cl (centres unmarked)

>  <UOM>
mg/kg

>  <EXPERIMENTAL_VALUE>
16

$$$$

====

- Tested on: Purkinje-Fasern aus Hundeherzen
- ASSAY_NAME: Electrophysiological studies on Purkinje fibres (Vmax)
- Assay type: cell-based, Hund
- CONDITION_NOTES: (% of control Vmax at cycle length 2000) / (% of control Vmax at cycle length 500) at C20 Vmax

>  <COMPOUND>
COc1cc(C(=O)CCc2ccccc2OCC(O)CNC(C)C)cc(OC)c1OC.Cl (centres unmarked)

>  <Rate-Faktor von Vmax>
1,14

$$$$
>  <COMPOUND>
Cl.O=C(CCc1ccccc1OCC(O)CN1CCCCC1)c1ccccc1 (centres unmarked)

>  <Rate-Faktor von Vmax>
1,08

$$$$
>  <COMPOUND>
COc1ccc(C(=O)CCc2ccccc2OCC(O)CNC(C)(C)C)cc1OC.Cl (centres unmarked)

>  <Rate-Faktor von Vmax>
1,39

$$$$
>  <COMPOUND>
COc1cc(C(=O)CCc2ccccc2OCC(O)CNC2CCCCC2)cc(OC)c1OC.Cl (centres unmarked)

>  <Rate-Faktor von Vmax>
5,00

$$$$
>  <COMPOUND>
CCC(C)(C)NCC(O)COc1ccccc1CCC(=O)c1ccc(OC)c(OC)c1.Cl (centres unmarked)

>  <Rate-Faktor von Vmax>
1,27

$$$$
